tested on: MILI (PIWIL2) piRISC loaded with piRNA #1 (26 nt); assay: pre-steady-state target cleavage rate (min^-1); guide: piRNA #1 5'p-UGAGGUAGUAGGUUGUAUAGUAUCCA; MIWI and MILI are mouse PIWI proteins and EfPiwi is from a freshwater sponge; tags in brackets are library labels; higher = faster piRNA-guided slicing of the target; conditions: auxiliary factor: 500 nM mouse GTSF1;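 also: 1 nM active piRISC with 0.1 nM target library at 33 °C single turnover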
Decision: pre-steady-state target cleavage rate >= 0.01 yields true, all other cases yield false.

As a guide, the following entries are already answered.
1. GGAGUGGAUACUAUACAACCUACUACCCUCA : true
2. GGAGACCUAUCUAUACAACCUAACUACCUCA : false
3. GGAGACCUAUCAUAACAACCUACUACCUCA : true

[ask] Determine whether measured pre-steady-state target cleavage rate meets or exceeds 0.01 for GGAGUGGAUACUAUACAACCUGCUACCUCA
[reply] true

[ask] Is pre-steady-state target cleavage rate at least 0.01? Consider GGAGACCUAUCAAUACAACCAACUACCUCA
[reply] false

[ask] Given the entry GGAGACCUAACAAUACAACCUACUUCCUCA , answer whether its pre-steady-state target cleavage rate meets or surpasses 0.01.
[reply] true

[ask] I'd appreciate it if you could say whether GGAGACCUAUGAUAUGAACGUACAACCUCA has pre-steady-state target cleavage rate at least equal to 0.01.
[reply] false

[ask] Would you say GGAGUGGAUACUAUACAACCUACUAUCUCA shows pre-steady-state target cleavage rate at minimum 0.01?
[reply] true
